The entries below are paired with their reported self-cleavage kobs at 40 uM GlcN6P.
B1: glmS ribozyme (parent)
chain: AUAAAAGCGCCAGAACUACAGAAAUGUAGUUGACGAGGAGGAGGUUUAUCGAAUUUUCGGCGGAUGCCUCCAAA

- Variants of: B1
- Method summary: self-cleavage kobs at 40 uM GlcN6P; higher = faster cleavage; RNA array
- Stated conditions: with glucosamine-6-phosphate
This sample holds only a part of the variants without activity.

[in] State the recorded self-cleavage kobs at 40 uM GlcN6P for this entry: A42G C70U
[out] 0.000696 s⁻¹

[in] # repeat for G7A A12U A52U
[out] < 1e-05 s⁻¹

[in] # repeat for C10U G43U
[out] < 1e-05 s⁻¹

[in] # repeat for "C68A"
[out] < 1e-05 s⁻¹

[in] # repeat for A12G A52U
[out] < 1e-05 s⁻¹

[in] # repeat for G13A G32A
[out] 4.73e-05 s⁻¹

[in] # repeat for G9C U54A
[out] < 1e-05 s⁻¹

[in] # repeat for A12U A14G A52G
[out] 0.000148 s⁻¹

[in] # repeat for G35C C58A G62U
[out] < 1e-05 s⁻¹
